System: MS2 coat protein
measurement description: apparent KD of MS2 coat protein; designed switch direction (-1 OFF switch, 1 ON switch): 1; higher = weaker reporter binding
test parameters: input ligand: none
recorded metric: apparent KD of MS2 coat protein (nM)
Please respond with the number in nM and leave the unit unwritten.

INSERT INTO assay_data (sequence_chain, target_under_test, value_measured) VALUES
  ('UUAAUUAAUUAAUUAUACAUGAGGAUCACCCAUGUAAGUGAUCAGGAUAUCAGCUCGUUUAGAGCUGAGAAGGGAUCCAUGUAA [SSNG3/14-A3] (Eterna round: R96, puzzle: Same State NG 3)', 'MS2 coat protein', 150);

We now examine a further sequence.
Ask | Form field: reported apparent KD of MS2 coat protein of GCUGCAAUUAACGCCUACAUGAGGAUCACCCAUGUAUGUAGGCAGGAUAUCGUUUGCAAAGCAAACGAGAAGGGCUGUAGUAGC [Mat - Same State NG 3 - JL Mod - D37] (Eterna round: R96, puzzle: Same State NG 3)
Reply | 113

* * *

Tested on: MS2 coat protein
measurement description: apparent KD of MS2 coat protein; designed switch direction (-1 OFF switch, 1 ON switch): -1; higher = weaker reporter binding
test parameters: Eterna round: R95; input ligand: FMN 200 uM
The entries below come with measured apparent KD of MS2 coat protein values attached.
Answer with the value and then the unit.

Reference set (4 entries):
INSERT INTO results (sequence_chain, target_under_test, value_measured) VALUES
  ('GCACGGUAAGUGAGGAUAUACCUCUGGAUACAGAGGUAGAAGGCACAUGAGGAUCACCCAUGUCUAAACCGUGC [Fiskers BMX 4 - 82] (puzzle: Brourd''s mod of Exclusion 4)', 'MS2 coat protein', '24.9 nM'),
  ('AAUAGCAAGUAAGAUCCUAACAUGAGGAUCACCCAUGUGCUCGUCUUGUAAAGUACUAUCACGAAAGUGAUAGUACA [Sensor 3, v1 - 50] (puzzle: Sensor v3, turn-off variant 1)', 'MS2 coat protein', '108 nM'),
  ('AAGACCUUUGUCAGGAUAUCAAGGCAAUUCGCCGGUGAGAAGGGACAUGAGGAUCACCCAUGUAAAGAAAAGAA [Rausedlave] (puzzle: Brourd''s mod of Exclusion 4)', 'MS2 coat protein', '69 nM'),
  ('AGUACUAUGCGUGCUGACAUGCGUAGUGCAGCAGGUGUAACAUGAGGAUCACCCAUGUCCUCAUUUGCUCGUCUUAU [Mat - Sensor v3 - Turn-off var 2 - D12] (puzzle: Sensor v3, turn-off variant 2)', 'MS2 coat protein', '116 nM');

Ask | If you can, please state the reported apparent KD of MS2 coat protein value of ACUUGCGAUAUGCUCGUCUUAUUUUUGUUGACGUUCUAUACAUGAGGAUCACCCAUGUUUUGUUCCUUGUGCUGGUA [JR_SV3TOV2_Sub072] (puzzle: Sensor v3, turn-off variant 2) .
Reply | 161 nM

* * *

In this section we review reported apparent KD of MS2 coat protein values for a set of sequences.
System: MS2 coat protein
measurement description: apparent KD of MS2 coat protein; designed switch direction (-1 OFF switch, 1 ON switch): 1; higher = weaker reporter binding
test parameters: input ligand: microRNA oligo, concentration not stated
The figure you give is taken to be in nM; do not add the unit.

INSERT INTO results (sequence_chain, recorded_metric, display_unit, value_measured) VALUES
  ('AGCUAUUAAUCAGGAUAUGGUGACAUGAGGAUCACCCAUGUAUAGAUGAUUAAAUGUGGUCUAUACUAGAAGGGAUUACUAACA [SameState NG2 #53] (Eterna round: R96, puzzle: Same State NG 2)', 'apparent KD of MS2 coat protein', 'nM', 478),
  ('UUGCGGGCUUGAGGAUAUUGAGUACAUAUGUUUAACAUGAGGAUCACCCAUGUGGGUUGCGGUAUCGAGAAGGUAACUUACUAC [salish99_SSNG2_r04_807] (Eterna round: R96, puzzle: Same State NG 2)', 'apparent KD of MS2 coat protein', 'nM', 70.4);

# input for lookup
Ask | Hi! What's the reported apparent KD of MS2 coat protein for AAACCACAUGAGGAUCACCCAUGUAAAAAUAUGGGAGGAUAUCGGAAUAAAAUAAAGAAACGAGAAGGCCUAAAAA [59%, Flamingo, 5] (Eterna round: R96, puzzle: Same State 1) on MS2 coat protein?
Reply | 212
